# STUDY SYSTEM: Cytochrome P450 1A2 (Homo sapiens) (UniProt P05177)
# Sequence (P05177 whole entry, looked up): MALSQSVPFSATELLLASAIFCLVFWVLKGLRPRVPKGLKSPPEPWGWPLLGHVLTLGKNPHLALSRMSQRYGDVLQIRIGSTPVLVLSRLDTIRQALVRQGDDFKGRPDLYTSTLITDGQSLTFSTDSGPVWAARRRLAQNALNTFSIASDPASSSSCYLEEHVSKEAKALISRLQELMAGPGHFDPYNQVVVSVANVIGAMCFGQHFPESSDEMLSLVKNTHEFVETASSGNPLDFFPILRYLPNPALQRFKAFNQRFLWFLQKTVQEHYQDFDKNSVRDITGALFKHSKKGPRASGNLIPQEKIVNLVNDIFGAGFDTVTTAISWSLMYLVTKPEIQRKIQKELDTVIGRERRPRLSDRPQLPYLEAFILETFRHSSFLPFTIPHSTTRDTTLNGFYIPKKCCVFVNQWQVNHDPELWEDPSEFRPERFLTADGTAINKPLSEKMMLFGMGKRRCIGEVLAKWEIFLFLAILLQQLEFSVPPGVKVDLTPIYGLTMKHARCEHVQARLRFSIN
# ASSAY NAME: Cytochrome panel assay with activity outcomes
# DETAILS: recombinant CYP, pro-luciferin dealkylation, luminescence, p450-cyp1a2; series mostly up to 57.1 µM
Hit rate of the full screen: of about 16,000 compounds, about 5,700 (36%) were called active. Not shown: some 24% with an inconclusive outcome. Calls come from the whole dose curve; as a rule, active = well fitted curve in the direction sought with a large enough effect; inconclusive = small, poorly fitted or top-dose-only effect, or effect the other way; inactive = no such curve, though single readings can be large or run the other way. The list shows a part of the results.
Permitted responses: 1 = active, -1 = inactive

Worked set:
C1CNCCOCCNCCN1; -1
Nc1nc2ncc(CNc3ccc(C(=O)N[C@@H](CCC(=O)O)C(=O)O)cc3)nc2c(=O)[nH]1; -1
O=C1C=C(NCC2CCCO2)C2(CCCCC2)O1 (stereo not given); -1

Per the assay record, what outcome was assigned to c1ccc(CNc2ccnc(-c3cccnc3)n2)cc1 ?
1

// return assay outcome for Cc1ccc(C2Nc3ccccc3C(=O)N2Cc2ccco2)cc1 (stereo not given)
1

# lookup: test call for O=c1cc(N2CCN(c3cccc(Cl)c3)CC2)[nH]c(=O)n1C1CCCCC1
-1

Returns: the outcome recorded for O=C(NC(=S)Nc1ccc(C(=O)N2CCOCC2)cc1)c1ccc([N+](=O)[O-])cc1 in this assay.
-1

Please state the recorded outcome for this compound: COc1cccc(N=Cc2c[nH][nH]c2=O)c1
1

Dear all, I need the recorded test outcome for CCn1c(C)cc(/C=C2\NC(=O)N(Cc3ccc(Cl)cc3)C2=O)c1C , thank you.
1

GET /call?item= Cc1cccc[n+]1CC(=O)Nc1ccc([N+](=O)[O-])cc1Cl returns the recorded outcome of this test.
-1

What classification did CC1CC2(CCCCC2)N2C(=O)C(=O)c3cccc1c32 (stereo not given) end up with in this test?
1

The reported numbers originate from PubChem BioAssay AID1851.
